- test_description: Human HepG2 cell viability assay in 384 well format
- Assay type: toxicity, cell-based
- Design: dose 125 nL, time 70.5 hour; concentration not given beside the values
- setup_conditions: HepG2 cells, read-out: Inhibition
measured_quantity: cytotoxicity at 70.5 h (%)
Entry rule: numbers only, all in %.

Exercise: State its cytotoxicity at 70.5 h: NC(=O)CN(Cc1ncc(-c2ccccc2)o1)C1CCCC1
Solution: -7.44

* * *

Quick list: cytotoxicity at 70.5 h per entry.
- test_description: Human HepG2 cell viability assay in 384 well format
- Format: toxicity, cell-based
- Parameters: dose 125 nL, time 70.5 hour; concentration not given beside the values
- setup_conditions: HepG2 cells, read-out: Inhibition
Expressed in %, but write only the number.

In the examples that follow, each entry is paired with its recorded cytotoxicity at 70.5 h.
[[record]]
compound = "COCCNC(=O)CSc1nnc(OC(C)C)s1"
unit_info = "%"
value_measured = -10.2

[[record]]
compound = "c1cc(-c2cnc(C3CCNCC3)cn2)n[nH]1"
unit_info = "%"
value_measured = 12.8

[[record]]
compound = "O=C1CC(c2ccsc2)c2c(n(C3CCOCC3)[nH]c2=O)N1 (stereo unspecified)"
unit_info = "%"
value_measured = 14.8

[[record]]
compound = "Cc1cnn(CC2CCCN2Cc2nnc(Cc3ccccc3)o2)c1 (stereo unspecified)"
unit_info = "%"
value_measured = 8

[[record]]
compound = "CC(C)(C)NC(=O)N1CCCn2nc(C(=O)Nc3ccccc3)cc2C1"
unit_info = "%"
value_measured = -12.5

[[record]]
compound = "Cc1ccc(S(=O)(=O)Nc2ccc(C)c(C(=O)O)c2)s1"
unit_info = "%"
value_measured = -0.348

[[record]]
compound = "CCn1cc2c(n1)CN(CC1CC1)CC2COCC1CC1 (stereo unspecified)"
unit_info = "%"
value_measured = -15

[[record]]
compound = "CCN(C(=O)CN1CCC(c2ccccc2)C1)C1CC1 (stereo unspecified)"
unit_info = "%"
value_measured = 0.241

[[record]]
compound = "CC1=N[C@@]2(CC[C@@H]3CN(C(=O)NCC(C)C)C[C@@H]32)C(=O)N1CC(C)C"
unit_info = "%"
value_measured = 12.3

[[record]]
compound = "CCN(CCn1cccn1)Cc1nc(-c2ccc(C)o2)oc1C"
unit_info = "%"
value_measured = 13


Please examine the following record next.
Exercise: Identify measured cytotoxicity at 70.5 h associated with Cn1ccnc1CCNS(=O)(=O)Cc1cccc(C#N)c1
Solution: -8.33

* * *

- test_description: Human HepG2 cell viability assay in 384 well format
- Format: toxicity, cell-based
- Parameters: dose 125 nL, time 70.5 hour; concentration not given beside the values
- setup_conditions: HepG2 cells, read-out: Inhibition
Measured cytotoxicity at 70.5 h, listed per entry.
Numbers only; they are read as %.

[[record]]
compound = "O=C(c1ccc(C2CCCO2)s1)N1CCCOCC1 (configuration not stated)"
value_measured = -8.57


Exercise: // Input: Cn1ncc2c1NC(=O)CC2c1cccs1 (configuration not stated) . Output its cytotoxicity at 70.5 h only.
Solution: -4.29

Exercise: Hello, please tell me recorded cytotoxicity at 70.5 h for this one: COCC(C)Nc1ccc(-c2nc(Cc3ccc(F)cc3)no2)cn1 (configuration not stated)
Solution: 27.4

Exercise: Determine from records and report cytotoxicity at 70.5 h for C[C@@H]1CN(C(=O)c2nc3ccc(Cl)cn3c2-c2ncc[nH]2)C[C@H](C)O1
Solution: -14.7

* * *

- test_description: Human HepG2 cell viability assay in 384 well format
- Type: toxicity, cell-based
- Set-up: dose 125 nL, time 70.5 hour; concentration not given beside the values
- setup_conditions: HepG2 cells, read-out: Inhibition
measured_quantity: cytotoxicity at 70.5 h (%)
Give the quantity in %, number only.

# annotated cases, reported cytotoxicity at 70.5 h shown
[[record]]
molecule = "COc1ccc(CNCC(C)Oc2ccccn2)cc1Br (stereo unspecified)"
unit_info = "%"
value_measured = -18.5

[[record]]
molecule = "COc1cccc(-c2noc(-c3ccc(NCCCO)nc3)n2)c1OC"
unit_info = "%"
value_measured = 2.28

[[record]]
molecule = "Cc1cc(C[C@@H]2CCC[C@H]2NCc2ccccc2F)on1"
unit_info = "%"
value_measured = -2.37

[[record]]
molecule = "CCCn1[nH]cc/c1=N\\C(=O)CN1CCC[C@H]1CO"
unit_info = "%"
value_measured = 2.76

[[record]]
molecule = "CC(=O)N1CCC2(CC1)CN(C(C)=O)CC21CCNC1=O (stereo unspecified)"
unit_info = "%"
value_measured = 16.2


Exercise: Please report cytotoxicity at 70.5 h for the following molecule: CC1CCN(CCCNC(=O)C2CCCCC2)CC1
Solution: -5.79

Exercise: Note cytotoxicity at 70.5 h for the molecule shown: CC(C)c1nc2cc(NC(=O)Cn3ccc(=O)[nH]c3=O)ccc2o1
Solution: -8.49

Exercise: Dear colleague, please send me the reported cytotoxicity at 70.5 h for Nc1nccnc1C(=O)N1CCN(Cc2cccc3ccccc23)CC1 when you can.
Solution: 28

Exercise: Look up and state reported cytotoxicity at 70.5 h for CC(=O)Nc1nc(C(=O)NC(C)c2cccnc2)cs1 (stereo unspecified)
Solution: -6.5

Exercise: Provide one value: measured cytotoxicity at 70.5 h of CC(C)C(C)NC(=O)Nc1cccn(C)c1=O (stereo unspecified)
Solution: 4.29

Exercise: Indicate its recorded cytotoxicity at 70.5 h; the molecule in question is O=C(O)c1ccccc1-c1ccc(Cn2c(=O)cc[nH]c2=O)cc1
Solution: -0.721

* * *

Measured cytotoxicity at 70.5 h, listed per entry for reference.
- test_description: Human HepG2 cell viability assay in 384 well format
- Type: toxicity, cell-based
- Design: dose 125 nL, time 70.5 hour; concentration not given beside the values
- setup_conditions: HepG2 cells, read-out: Inhibition
Kindly format the answer as number then unit.

Use the examples below as a reference point.
[[record]]
compound = "CC(Oc1ccc(C(=O)NCCNS(C)(=O)=O)cn1)c1ccccc1 (stereo not given)"
measured_quantity = "cytotoxicity at 70.5 h"
value_measured = "-8.66%"

[[record]]
compound = "Cc1noc(C)c1CC(=O)NCc1ccnc(OCC(F)(F)F)c1"
measured_quantity = "cytotoxicity at 70.5 h"
value_measured = "-7.45%"

[[record]]
compound = "Cc1ncsc1CCC(=O)NCc1cc2n(n1)CCNC2"
measured_quantity = "cytotoxicity at 70.5 h"
value_measured = "-8.17%"

[[record]]
compound = "CN(Cc1ccsc1)C(=O)Nc1ccc(N2CCCC2)nc1"
measured_quantity = "cytotoxicity at 70.5 h"
value_measured = "0.563%"


Exercise: Hello, please tell me recorded cytotoxicity at 70.5 h for this one: Cc1cccc(CN2CCN(C(=O)c3cccnc3O)CC2)c1
Solution: -4.88%

* * *

- test_description: Human HepG2 cell viability assay in 384 well format
- Assay type: toxicity, cell-based
- Set-up: dose 125 nL, time 70.5 hour; concentration not given beside the values
- setup_conditions: HepG2 cells, read-out: Inhibition
Reported cytotoxicity at 70.5 h values for the following molecules.
Please state the figure in %; there is no need to write the unit.

[[record]]
molecule = "COCCCN(C)C1CCCN(Cc2noc(C3CC3)n2)C1 (stereo not drawn)"
measured_quantity = "cytotoxicity at 70.5 h"
value_measured = 11.8

[[record]]
molecule = "COCC(=O)N1CCCC1c1cccc(Cc2ccccc2F)n1 (stereo not drawn)"
measured_quantity = "cytotoxicity at 70.5 h"
value_measured = -1.54

[[record]]
molecule = "OCCN1CCc2[nH]nc(C(c3ccccc3)c3ccccc3)c2C1"
measured_quantity = "cytotoxicity at 70.5 h"
value_measured = -7.95


Exercise: Assign cytotoxicity at 70.5 h to the following record: CC1=N[C@@]2(CC[C@@H]3CN(C(=O)NCC(C)C)C[C@@H]32)C(=O)N1C
Solution: -0.53

Exercise: Provide only the value of recorded cytotoxicity at 70.5 h for Cc1nn(-c2ccccn2)c(C)c1[C@@H]1C=C[C@@H](NC(=O)CCC(=O)O)C1
Solution: -6.4

Exercise: Specify measured cytotoxicity at 70.5 h for CC(C)c1nccc(C2(c3ccccc3Cl)CCNCC2)n1 .
Solution: 10.5

Exercise: Provide only the value of recorded cytotoxicity at 70.5 h for c1ccc(CO[C@H]2C[C@@H]3CN(Cc4cncnc4)C[C@@H]3C2)cc1
Solution: -5.58

Exercise: Provide measured cytotoxicity at 70.5 h value, entry: Cc1cccc(C)c1NC(=O)c1n[nH]c(-n2cnnc2)n1
Solution: -13.4

Exercise: Provide cytotoxicity at 70.5 h value for the following molecule: Cc1noc(C)c1NC(=O)Cn1cc(Br)ccc1=O
Solution: 0.532

Exercise: Identify measured cytotoxicity at 70.5 h corresponding to Cc1cccc(-c2nc(N)nc3c2CN(C(=O)c2ccncn2)C3C)c1 (stereo not drawn)
Solution: -18.2

Exercise: Report cytotoxicity at 70.5 h, nothing else, for this molecule: CNC(=O)NC(=O)CNc1cc(C(=O)OC)cc(C(F)(F)F)c1
Solution: 1.77

Exercise: Give cytotoxicity at 70.5 h for the following molecule: CC(=O)Nc1ccc(CNC(C)c2c(C)nn(C)c2C)cc1 (stereo not drawn)
Solution: 13.1

Exercise: Write down cytotoxicity at 70.5 h measured for item COc1ncccc1C(=O)N1CCC(c2nc3c(C)cccc3[nH]2)CC1
Solution: -6.55

Attribution: ChEMBL document CHEMBL3507680
